Measured values drawn from ChEMBL document CHEMBL5625181 for this set.

Biological target: UniProt P34972
Test: Displacement of [3H]CP55,940 from human CB2 receptor expressed in CHO cells membrane assessed as residual activity at 0.1 uM by scintillation counting analysis relative to control
Format: cell membranes
Below, each entry is listed with its recorded Activity.

Look over these answered cases.
1) N#Cc1ccc(CN2C(=O)c3ccc(OCc4ccc(OC(F)(F)F)cc4)cc3OC23CCCCC3)cc1	< 80%
2) CN(C)C(=O)CN1C(=O)c2ccc(OS(=O)(=O)c3ccc(Br)cc3)cc2OC1(C)C	< 80%
3) COc1cccc(S(=O)(=O)Oc2ccc3c(c2)OC2(CCCCC2)N(Cc2ccc(C(C)C)cc2)C3=O)c1	< 80%
4) O=C1c2ccc(OS(=O)(=O)c3ccc4c(c3)OCCO4)cc2OC2(CCOCC2)N1Cc1ccccc1	< 80%
5) CC(C)(C)C(=O)COc1ccc2c(c1)OC(C)(C)N(Cc1ccccc1)C2=O	< 80%

**Query** # input compound: COc1cccc(S(=O)(=O)Oc2ccc3c(c2)OC2(CCCCC2)N(Cc2ccccc2)C3=O)c1 ; wanted: its Activity
**Result** < 80%

**Query** # input compound: O=C1NC2(CCCCC2)Oc2cc(OS(=O)(=O)c3ccccc3[N+](=O)[O-])ccc21 ; wanted: its Activity
**Result** < 80%

**Query** # input compound: COc1cccc(S(=O)(=O)Oc2ccc3c(c2)OC2(CCCCC2)N(CCCCC#N)C3=O)c1 ; wanted: its Activity
**Result** < 80%

---

Biological target: Cannabinoid receptor 2 (Homo sapiens)
Sequence (P34972 whole entry): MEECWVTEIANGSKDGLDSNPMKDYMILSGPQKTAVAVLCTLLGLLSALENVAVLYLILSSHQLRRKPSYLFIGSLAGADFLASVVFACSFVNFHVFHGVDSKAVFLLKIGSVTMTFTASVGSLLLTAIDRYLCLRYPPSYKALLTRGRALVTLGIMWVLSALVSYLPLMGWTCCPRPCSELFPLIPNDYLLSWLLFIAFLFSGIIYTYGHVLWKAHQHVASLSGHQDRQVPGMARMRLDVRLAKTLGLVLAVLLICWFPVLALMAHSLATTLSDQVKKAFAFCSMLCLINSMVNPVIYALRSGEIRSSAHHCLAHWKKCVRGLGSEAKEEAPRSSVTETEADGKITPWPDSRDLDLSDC
Assay: Agonist activity at human recombinant Cannabinoid receptor 2 by GTPgammaS binding assay
Assay type: functional
Settings: read-out: EC50
quantity.measured: pEC50
// pEC50 here means minus log10 of the molar concentration (mol/L)

**Query** # input compound: O=C1c2ccc(OS(=O)(=O)c3cccs3)cc2OC2(CCCCC2)N1Cc1ccccc1 ; wanted: its pEC50
**Result** 6.96

---

Target: UniProtKB P34972
Experiment: Displacement of [3H]CP55,940 from human CB2 receptor expressed in CHO cells membrane assessed as residual activity at 0.1 uM by scintillation counting analysis relative to control
Type: cell membranes
quantity.measured: Activity

1) Cc1ccc(S(=O)(=O)Oc2ccc3c(c2)OC(C)(C)N(Cc2ccc(F)cc2)C3=O)cc1	< 80%
2) CN1C(=O)c2ccc(OS(=O)(=O)c3ccc(Oc4ccccc4)cc3)cc2OC1(C)C	< 80%
3) COc1ccc(S(=O)(=O)Oc2ccc3c(c2)OC2(CCCCC2)N(Cc2ccccc2)C3=O)cc1	< 80%
4) COc1cccc(COc2ccc3c(c2)OC(C)(C)N(Cc2ccc(F)cc2)C3=O)c1	< 80%
5) O=C1c2ccc(OS(=O)(=O)c3ccc(-c4ccc(Cl)cc4)cc3)cc2OC2(CCCCC2)N1Cc1ccccc1	< 80%

Alright, here's another molecule for you.
**Query** # input molecule: COc1cccc(COc2ccc3c(c2)OC(C)(C)N(Cc2ccc(C(C)C)cc2)C3=O)c1 ; wanted: its Activity
**Result** < 80%
